- Tgt: T1, VEGF165 (UniProt P15692 27-191)
- T1 chain: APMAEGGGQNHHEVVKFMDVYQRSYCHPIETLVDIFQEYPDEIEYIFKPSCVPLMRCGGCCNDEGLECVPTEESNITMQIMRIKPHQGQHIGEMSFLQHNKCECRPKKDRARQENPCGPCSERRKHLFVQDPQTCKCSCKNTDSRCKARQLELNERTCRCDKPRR
- Assay Text: Biacore; 4000RU VEGF
Form field: Kd (one value per entry).

D2-Cys protein (D2 domain of FLT-1 with HPC4 tag and C-terminal cysteine), monomer (receptor, Expressed in HEK293-EBNA cells and purified on an HPC4 antibody column; glycosylated; also called D2 monomer; TCEP-reduced D2 monomer) RPFVEMYSEIPEIIHMTEGRELVIPCRVTSPNITVTLKKFPLDTLIPDGKRIIWDSRKGFIISNATYKEIGLLTCEATVNGHLYKTNYLTHRQT	28.9 nM

Attention now shifts to the item below.
Ask | Which measured Kd value corresponds to sFLT01 (D2-9Gly-Fc) (Fc fusion) RPFVEMYSEIPEIIHMTEGRELVIPCRVTSPNITVTLKKFPLDTLIPDGKRIIWDSRKGFIISNATYKEIGLLTCEATVNGHLYKTNYLTHRQTGGGGGGGGG ?
Reply | 0.8 nM
